Item-by-item account of IC50
biological target: Recombinant human ENPP3 protein (Homo sapiens (Human)); assay: ENPP3 cGAMP Biochemical Assay; conditions: 70.5 nM ENPP3, 120 μM 2′3′-cGAMP substrate, TR-FRET
Sequence (O14638 whole entry): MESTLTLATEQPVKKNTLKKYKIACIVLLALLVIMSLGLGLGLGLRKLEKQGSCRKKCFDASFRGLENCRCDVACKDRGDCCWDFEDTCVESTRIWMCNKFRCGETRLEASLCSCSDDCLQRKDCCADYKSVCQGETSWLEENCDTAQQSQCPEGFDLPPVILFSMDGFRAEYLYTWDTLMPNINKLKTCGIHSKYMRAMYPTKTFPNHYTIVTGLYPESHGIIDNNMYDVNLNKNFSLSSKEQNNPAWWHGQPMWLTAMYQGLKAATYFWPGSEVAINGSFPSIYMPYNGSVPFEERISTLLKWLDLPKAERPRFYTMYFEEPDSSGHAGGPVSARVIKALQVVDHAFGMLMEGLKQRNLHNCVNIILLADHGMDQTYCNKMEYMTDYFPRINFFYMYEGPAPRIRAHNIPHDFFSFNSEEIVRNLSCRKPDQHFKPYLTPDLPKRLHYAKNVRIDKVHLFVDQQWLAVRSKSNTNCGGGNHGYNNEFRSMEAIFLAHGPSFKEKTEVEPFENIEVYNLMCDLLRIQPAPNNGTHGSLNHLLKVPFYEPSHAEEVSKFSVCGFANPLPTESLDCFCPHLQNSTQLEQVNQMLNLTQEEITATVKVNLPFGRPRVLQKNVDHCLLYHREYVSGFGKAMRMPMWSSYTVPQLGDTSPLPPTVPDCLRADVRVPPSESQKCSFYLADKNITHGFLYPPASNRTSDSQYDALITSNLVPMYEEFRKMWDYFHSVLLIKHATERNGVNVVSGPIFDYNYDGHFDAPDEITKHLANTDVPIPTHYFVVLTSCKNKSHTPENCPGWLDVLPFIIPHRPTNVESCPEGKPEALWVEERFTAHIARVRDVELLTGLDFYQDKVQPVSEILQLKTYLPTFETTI

According to the records, this compound C#CCn1nc(Cl)c2c(NCc3ccc(S(=N)(N)=O)cc3)ccnc21 (centres unmarked) [Compound 11A] displays IC50 of 10 to 100 nM

According to the records, this compound C#CCn1nc(Cl)c2c(N(C)Cc3ccc(S(C)(=N)=O)cc3)ccnc21 (centres unmarked) displays IC50 of 10 to 100 nM

According to the records, this compound CN=S(N)(=O)c1ccc(CNc2ccnc3c2c(Cl)nn3CC#N)cc1 (centres unmarked) [Compound 12B] displays IC50 of 100 to 1000 nM

According to the records, this compound CCn1nc(Cl)c2c(NCc3ccc(S(=N)(=O)CCOC)cc3)ccnc21 (centres unmarked) displays IC50 of 100 to 1000 nM

According to the records, this compound N#CCn1nc(Cl)c2c(NCC3CCN([S@@](N)(=O)=NC#N)CC3)ccnc21 [Compound 15E] displays IC50 of < 10 nM

Next:
According to the records, this compound N#CCn1nc(Cl)c2c(NCc3ccc(S(N)(=O)=NC#N)cc3)ccnc21 (centres unmarked) [Compound 12H] displays IC50 of < 10 nM

According to the records, this compound CCn1ncc2c(NCC3CCN([S@@](C)(=N)=O)CC3)ccnc21 [Compound 14G] displays IC50 of ≥ 1000 nM

According to the records, this compound CCn1ncc2c(NCc3ccc(S(N)(=O)=NC)cc3)ccnc21 (centres unmarked) displays IC50 of ≥ 1000 nM

According to the records, this compound CCn1nc(Cl)c2c(NCc3ccc(S(N)(=O)=NC#N)cc3)ccnc21 (centres unmarked) [Compound 12F] displays IC50 of 10 to 100 nM

According to the records, this compound C#CCn1nc(Cl)c2c(NCC3CCN(S(=N)(N)=O)CC3)ccnc21 (centres unmarked) [Compound 15I] displays IC50 of 100 to 1000 nM

According to the records, this compound CCn1ncc2c(Oc3ccc(S(N)(=O)=NCC4CC4)cc3)ccnc21 (centres unmarked) [Compound 16A] displays IC50 of ≥ 1000 nM

According to the records, this compound CCn1nc(Br)c2c(NCc3ccc(S(=N)(N)=O)cc3)ccnc21 (centres unmarked) displays IC50 of 100 to 1000 nM

According to the records, this compound C[S@](=N)(=O)N1CCC(CNc2ccnc3c2c(Cl)nn3CC#N)CC1 [Compound 13F] displays IC50 of ≥ 1000 nM

According to the records, this compound C#CCn1nc(Cl)c2c(NCc3ccc([S@@](=N)(=O)NC#N)cc3)ccnc21 [Compound 12K] displays IC50 of < 10 nM

According to the records, this compound CCn1ncc2c(Nc3ccc(S(N)(=O)=NCC4CC4)cc3)ccnc21 (centres unmarked) displays IC50 of 100 to 1000 nM

According to the records, this compound C#CCn1nc(Cl)c2c(NCc3ccc(S(N)(=O)=NC)cc3)ccnc21 (centres unmarked) [Compound 12A] displays IC50 of 10 to 100 nM

According to the records, this compound C#CCn1nc(Cl)c2c(NCC3CCN(S(C)(=N)=O)CC3)ccnc21 (centres unmarked) [Compound 13A] displays IC50 of 10 to 100 nM
